Recorded normalized growth, one value per entry.
# protocol text: chemical genetic growth profiling, strain panel (AID 1159580);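 note: tested at 20 µM; growth read once vehicle control cultures reached saturation at 30 °C; 1 = growth at the plate median or of vehicle wells; lower values mean less growth of the strain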
# run parameters: S. cerevisiae deletion strains, growth OD, locus YPL106C, strain sse1, hits give low values
About 2,000 (36%) of roughly 5,500 compounds were called active. Inconclusive results (about 18%) are left out. Some of the results follow.

Check out these entries, answers already filled in.
compound | measured
OCC(O)C(O)C(O)C(O)C(O)CO (centres undefined) | 0.989 (inactive)
Oc1ccc2c(c1)OCC1(O)Cc3cc(O)c(O)cc3C21 (centres undefined) | 0.99 (inactive)
CC1CC[C@@]2(OC1)O[C@H]1CC3C4CC[C@@H]5C[C@@H](O)CC[C@]5(C)C4CC[C@]3(C)[C@H]1[C@@H]2C (some centres undefined) | 1.02 (inactive)
CCOCN(C(=O)CCl)c1c(C)cccc1CC | 1.01 (inactive)
CC[n+]1c(-c2ccccc2)c2cc(N)ccc2c2ccc(N)cc21 | 0.913 (inactive)
CC(C1OC(C)(C)C(O)C1O)[C@@H]1CC[C@]2(C)C3=CCC4C(C)(C)C(=O)CC[C@]4(C)C3CC[C@@]12C (some centres undefined) | 1.08 (inactive)
C[C@@H]1CC[C@@]2(NC1)O[C@H]1C[C@H]3C4CC=C5C[C@@H](O)CC[C@]5(C)C4CC[C@]3(C)C1[C@@H]2C (some centres undefined) | 0.154 (active)
CCCCCCCCCCCC1=C(O)C(=O)C=C(O)C1=O | 0.794 (active)

From here, focus on the item given below.
For C[C@@H]1CC[C@@]2(OC1)OC1CC3C4CC=C5C[C@@H](O)CC[C@]5(C)C4CC[C@]3(C)C1[C@@H]2C (some centres undefined) , what is its reported normalized growth?
1.02 (inactive)

====

# protocol text: chemical genetic growth profiling, strain panel (AID 1159580)
# run parameters: S. cerevisiae deletion strains, growth OD, locus YEL003W, strain gim4, hits give low values
About 2,000 (36%) of roughly 5,500 compounds were called active. Not shown: some 18% with an inconclusive outcome. The list shows a part of the results.
property: normalized growth
// keep it numeric: no unit symbol after the value

Check out these entries, answers already filled in.
compound | normalized growth
CN1C[C@H](C(=O)N[C@]2(C)O[C@@]3(O)[C@@H]4CCCN4C(=O)[C@H](Cc4ccccc4)N3C2=O)C[C@@H]2c3cccc4[nH]cc(c34)C[C@H]21 | 0.99
Cc1[nH]ccc2c1[nH]c1cc(=O)ccc12 | 0.997
CC1CC[C@]2(NC1)O[C@H]1CC3C4CC[C@H]5C[C@@H](O)CC[C@]5(C)C4CC[C@]3(C)[C@H]1[C@@H]2C (some centres undefined) | 0.0733
CCCCC1C(=O)N(c2ccccc2)N(c2ccc(O)cc2)C1=O (centres undefined) | 0.998
C[C@@H]1CC[C@@]2(OC1)OC1CC3C4CC=C5C[C@@H](O)CC[C@]5(C)C4CC[C@]3(C)C1[C@@H]2C (some centres undefined) | 1

For O=C(Cc1cccs1)NC1C(=O)N2C(C(=O)[O-])=C(C[n+]3ccccc3)CSC12 (centres undefined) , what is its reported normalized growth?
0.969

====

# protocol text: chemical genetic growth profiling, strain panel (AID 1159580)
# run parameters: S. cerevisiae deletion strains, growth OD, locus YNR052C, strain pop2
Out of some 5,500 compounds screened, about 2,000 (36%) were called active. Another 18% or so got no clear call; they are omitted. Cut-off read from the data, not from the text of the source: active = normalized growth mostly below about 0.91 (no sharp cut-off); inconclusive = no clear call, values can overlap the other calls; inactive = mostly above about 0.92. Some of the results follow.
A correct response names exactly one class from yes (1) for active, no (0) for inactive

The examples below pair each entry with its known result.
molecule | cat
COc1cc(O)c2c(=O)c(O)c(-c3ccc(O)c(O)c3)oc2c1 | no (0)
NC(N)=NC(=O)c1nc(Cl)c(N)nc1N | no (0)
COc1ccc(-c2cc(=O)c3c(O)cc(O[C@@H]4O[C@H](CO[C@H]5O[C@H](C)[C@@H](O)[C@H](O)[C@@H]5O)[C@@H](O)[C@H](O)[C@H]4O)cc3o2)cc1O | no (0)
CCOC(=O)NC1=C(C2CC2)C(=O)C(NC(=O)OCC)=C(C2CC2)C1=O | no (0)
CC(=O)Oc1ccc2c(c1C(C)C)CCC1C(C)(C)CCC[C@]21C (stereo not given in full) | no (0)

In this assay, the call recorded for "O=C(O)C1=C[C@@H](O)[C@@H](O)[C@H](O)C1" was what?
no (0)

In this assay, the call recorded for CC1(C)C(=O)C=C[C@@]2(C)C1C[C@@H](O)[C@]1(C)C2CC[C@@]2(C)[C@H](c3ccoc3)OC(=O)[C@H]3O[C@]321 (stereo not given in full) was what?
no (0)

====

# protocol text: chemical genetic growth profiling, strain panel (AID 1159580);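 note: tested at 20 µM; growth read once vehicle control cultures reached saturation at 30 °C; 1 = growth at the plate median or of vehicle wells; lower values mean less growth of the strain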
# run parameters: S. cerevisiae deletion strains, growth OD, locus YPL240C, strain hsp82, hits give low values
Hit rate of the full screen: of about 5,500 compounds, about 2,000 (36%) were called active. Roughly 18% stayed inconclusive and do not appear here. This is one part of the list.
Recorded normalized growth, one value per entry.
// keep it numeric: no unit symbol after the value

Check out these entries, answers already filled in.
compound | normalized growth
CC(C)c1c(O)ccc2c1CCC1[C@@](C)(CO)CCC[C@]21C (stereo partly specified) | 1.01
CC(C)c1c(O)ccc2c1CCC1C(C)(C)CCC[C@]21C (stereo partly specified) | 0.29
O=C(O)C1=C[C@@H](O)[C@@H](O)[C@H](O)C1 | 0.989
COC(=O)[C@]1(C)CCC[C@]2(C)c3ccc(C(C)C)cc3C(=O)CC12 (stereo partly specified) | 0.968
CC(C)c1c(O)ccc2c1CCC1[C@@](C)(C=O)CCC[C@]21C (stereo partly specified) | 0.626

For O=C1C=C2C(=CCOC2O)O1 (stereo unspecified) , what is its reported normalized growth?
0.852

====

# protocol text: chemical genetic growth profiling, strain panel (AID 1159580);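 note: tested at 20 µM; growth read once vehicle control cultures reached saturation at 30 °C; 1 = growth at the plate median or of vehicle wells; lower values mean less growth of the strain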
# run parameters: S. cerevisiae deletion strains, growth OD, locus YNL175C, strain NOP13, hits give low values
Screen size: about 5,500 compounds; about 2,000 (36%) were called active. About 18% were inconclusive and are not listed. Some of the results follow.
property: normalized growth
// keep it numeric: no unit symbol after the value

For "O=C(Nc1ccccc1)c1cc([N+](=O)[O-])ccc1Cl" , what is its reported normalized growth?
0.996

For "O=S(=O)(c1cccc2c(Cl)cccc12)N1CCCNCC1" , what is its reported normalized growth?
1.03

For "N#C/C(=C\c1ccc(O)c(O)c1)C(=O)NCCCc1ccccc1" , what is its reported normalized growth?
0.998

For "CC(C)(C)c1cc(/C=C(\C#N)C(N)=S)cc(C(C)(C)C)c1O" , what is its reported normalized growth?
1.02

For "C=C(C)[C@H]1CN[C@H](C(=O)O)[C@H]1CC(=O)O" , what is its reported normalized growth?
1.02

For "COc1ccc(Cl)cc1C(=O)NCCc1ccc(S(=O)(=O)NC(=O)NC2CCCCC2)cc1" , what is its reported normalized growth?
1

For COc1cc(=O)n(C)c2c(OCC(O)C(C)(C)O)cccc12 (stereo unspecified) , what is its reported normalized growth?
1

====

# protocol text: chemical genetic growth profiling, strain panel (AID 1159580);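 note: tested at 20 µM; growth read once vehicle control cultures reached saturation at 30 °C; 1 = growth at the plate median or of vehicle wells; lower values mean less growth of the strain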
# run parameters: S. cerevisiae deletion strains, growth OD, locus YOR316C, strain cot1
About 2,000 (36%) of roughly 5,500 compounds were called active. Inconclusive results (about 18%) are left out. Rule as the data show it: active = normalized growth mostly below about 0.91 (no sharp cut-off); inconclusive = no clear call, values can overlap the other calls; inactive = mostly above about 0.92. This is one part of the list.
A correct response names exactly one class from active, inactive

The examples below pair each entry with its known result.
compound | cat
CC12CCC3c4ccc(OC(=O)c5ccccc5)cc4CCC3C1CCC2O (stereo not drawn) | inactive
CCN1C[C@]2(C)CC[C@H](OC)[C@]34C2[C@H](O)[C@]2(OCO[C@@]25C[C@H](OC)[C@H]2C[C@]3(O)C5[C@H]2O)C14 | inactive

In this assay, the call recorded for C[N+](C)(C)CC(O)CC(=O)O (stereo not drawn) was what?
inactive

In this assay, the call recorded for "O=C(O[C@@H]1Cc2c(O)cc(O)cc2O[C@@H]1c1cc(O)c(=O)c2c(O)c(O)cc([C@H]3Oc4cc(O)cc(O)c4C[C@H]3OC(=O)c3cc(O)c(O)c(O)c3)c2c1)c1cc(O)c(O)c(O)c1" was what?
inactive

In this assay, the call recorded for "NC(N)=NC(=O)c1nc(Cl)c(N)nc1N" was what?
inactive

In this assay, the call recorded for CCCCCCCCCCCCCCCCCC(=O)OC(CC(=O)O)C[N+](C)(C)C (stereo not drawn) was what?
active

In this assay, the call recorded for CC(C)(C)NCC(O)c1cc(O)cc(O)c1 (stereo not drawn) was what?
inactive

In this assay, the call recorded for "CN1C(C)(C)CCCC1(C)C" was what?
inactive

In this assay, the call recorded for CC(C)N(CCC(C(N)=O)(c1ccccc1)c1ccccn1)C(C)C (stereo not drawn) was what?
inactive

In this assay, the call recorded for "NC(N)=NC(=O)c1nc(Cl)c(N2CCCCCC2)nc1N" was what?
inactive

In this assay, the call recorded for "CC(=O)OCC1=C(C(=O)O)N2C(=O)[C@@H](NC(=O)Cc3cccs3)[C@H]2SC1" was what?
inactive

In this assay, the call recorded for CCN(Cc1ccncc1)C(=O)C(CO)c1ccccc1 (stereo not drawn) was what?
inactive

In this assay, the call recorded for C[C@]12CCC3c4ccc(O)cc4CCC3C1CC[C@@H]2O (stereo partly drawn) was what?
inactive
